B1: Far upstream element-binding protein 2, residues 142 to 214; numbered along this chain, Q92945 (parent)
chain: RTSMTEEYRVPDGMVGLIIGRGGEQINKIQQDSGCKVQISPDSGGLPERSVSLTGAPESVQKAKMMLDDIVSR

Variants of: B1
experiment_description: abundance fitness (aPCA) (normalised: wild type 0, dead -1); higher = more abundant; growth selection in yeast, the domain comes from the species named
condition: Homo sapiens
reported_metric: abundance fitness
Write the number on its own, no unit after it.

# mutant_name, abundance fitness
data = [
    ("Q38Y", 0.027),
    ("V51P", -0.847),
    ("G55A", -0.882),
    ("G23S", -0.178),
]

### Prompt For the variant shown here, `D68C` , give the reported abundance fitness.
### Response -0.372

### Prompt One more variant: `Q30R`
### Response -0.066

### Prompt Follow-up item: `M66T`
### Response -0.661

### Prompt Try the variant `L53F`
### Response -0.491

### Prompt Query `G55F` next
### Response -1.41

### Prompt Can you check `G55I` next?
### Response -1.5

### Prompt Can you check `M65W` next?
### Response -0.211

### Prompt Proceed to `M66N`
### Response -0.688

### Prompt Now the same for `M66Y`
### Response -0.379

### Prompt Next variant up: `G44H`
### Response -0.083

### Prompt Entry to check: `L67I`
### Response 0.041

### Prompt Query `E24Y` next
### Response 0.05
